From: ChEMBL document CHEMBL1770105

TEST SUMMARY: Drug level in Sprague-Dawley rat cerebral spinal fluid at 40 mg/kg, po after 2 hrs
Assay type: ADME, organism-based
Design: dose 40 mg/kg, route oral
CONDITION: cerebrospinal fluid, read-out: Drug uptake
MEASURE: concentration at 2 h
Quick note: number first, unit second.

What does the record list as concentration at 2 h for `COc1cc(Cl)c(-c2c(C)nn3c(NCCNC4CCOCC4)cc(C)nc23)c(Cl)c1` ? 0.026 µM
